measured_on: Nuclear receptor subfamily 1 group D member 1 (Homo sapiens, UniProt P20393)
Sequence (P20393 whole entry): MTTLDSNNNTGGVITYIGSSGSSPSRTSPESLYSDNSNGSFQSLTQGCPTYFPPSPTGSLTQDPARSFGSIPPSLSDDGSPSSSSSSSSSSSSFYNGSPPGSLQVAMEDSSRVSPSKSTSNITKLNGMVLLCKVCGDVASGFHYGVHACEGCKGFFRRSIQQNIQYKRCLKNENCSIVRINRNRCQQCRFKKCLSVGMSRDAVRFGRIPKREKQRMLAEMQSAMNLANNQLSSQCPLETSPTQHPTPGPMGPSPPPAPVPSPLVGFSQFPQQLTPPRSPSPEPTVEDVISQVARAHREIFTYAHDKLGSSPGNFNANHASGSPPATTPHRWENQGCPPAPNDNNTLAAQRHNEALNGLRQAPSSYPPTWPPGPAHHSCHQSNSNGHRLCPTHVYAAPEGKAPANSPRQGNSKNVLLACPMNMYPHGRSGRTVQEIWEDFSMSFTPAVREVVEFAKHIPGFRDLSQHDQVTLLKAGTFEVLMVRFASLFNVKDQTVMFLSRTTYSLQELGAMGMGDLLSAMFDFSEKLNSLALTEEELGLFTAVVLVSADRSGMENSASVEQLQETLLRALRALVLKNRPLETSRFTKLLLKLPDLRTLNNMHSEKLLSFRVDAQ
assay_comment: Agonist activity at Rev-Erbalpha expressed in HEK293 cells coexpressing […] promoter assessed as repression of transcription after 24 hrs by dual-Glo luciferase assay
pEC50: −log10 of the molar value.
I would appreciate it if you labelled entries rule met when pEC50 is 6 or higher, otherwise rule not met.

Study these solved cases before continuing.
[
  {
    "compound": "CS(=O)(=O)N1CCC(CN(Cc2ccc(Cl)cc2)Cc2ccc([N+](=O)[O-])s2)C1 (racemic)",
    "group_label": "rule met"
  },
  {
    "compound": "O=[N+]([O-])c1ccc(CN(Cc2ccc(Cl)cc2)Cc2ccc3ccccc3c2)s1",
    "group_label": "rule not met"
  }
]

Item `O=[N+]([O-])c1ccc(CN(Cc2ccc(Cl)cc2)Cc2nc3ccccc3s2)s1` with pEC50 of 6 or above?
rule not met

Item `COc1ccc(CN(CC(=O)OC(C)(C)C)Cc2ccc([N+](=O)[O-])s2)cc1` with pEC50 of 6 or above?
rule not met

Item CC(C)(C)OC(=O)N1CCC(CN(Cc2ccc(Cl)cc2)Cc2ccc([N+](=O)[O-])s2)C1 (racemic) with pEC50 of 6 or above?
rule not met

Item O=[N+]([O-])c1ccc(CN(Cc2ccc(Cl)cc2)CC2CCN(S(=O)(=O)Cc3ccccc3)C2)s1 (racemic) with pEC50 of 6 or above?
rule met

====

assay_comment: Plasma concentration in C57BL/6 mouse at 10 mg/kg, ip measured after 2 hrs by LC-MS/MS analysis
Format: ADME, organism-based
Set-up: dose 10 mg/kg, route intraperitoneal
Record form. Attribute: concentration at 2 h. Fill in for each entry.
One number for each entry, in nM.

[
  {
    "compound": "CS(=O)(=O)N1CCC(CN(Cc2ccc(Cl)cc2)Cc2ccc([N+](=O)[O-])s2)C1 (racemic)",
    "measured_quantity": "concentration at 2 h",
    "observed": 540
  }
]

Here's the next entry for you.
Specify reported concentration at 2 h for the compound shown: CCCCNC(=O)N1CCC(CN(Cc2ccc(Cl)cc2)Cc2ccc([N+](=O)[O-])s2)C1 (racemic)
530

====

measured_on: Nuclear receptor subfamily 1 group D member 1 (Homo sapiens)
assay_comment: Agonist activity at Rev-Erbalpha expressed in HEK293 cells coexpressing […] promoter assessed as repression of transcription after 24 hrs by dual-Glo luciferase assay
pEC50: −log10 of the molar value.
I would appreciate it if you labelled entries 1 (yes) when pEC50 is 6 or higher, otherwise 0 (no).

Study these solved cases before continuing.
[
  {
    "molecule": "CC(C)(C)OC(=O)CN(Cc1ccc(F)cc1)Cc1ccc([N+](=O)[O-])s1",
    "group_label": "0 (no)"
  },
  {
    "molecule": "CC(=O)N1CCC(CN(Cc2ccc(Cl)cc2)Cc2ccc([N+](=O)[O-])s2)C1 (racemic)",
    "group_label": "0 (no)"
  },
  {
    "molecule": "O=C(c1cccc2ccccc12)N(Cc1ccc(Cl)cc1)Cc1ccc([N+](=O)[O-])s1",
    "group_label": "0 (no)"
  },
  {
    "molecule": "CC(C)(C)OC(=O)CN(Cc1ccc([N+](=O)[O-])s1)Cc1cccc2ccccc12",
    "group_label": "0 (no)"
  },
  {
    "molecule": "O=[N+]([O-])c1ccc(CN(Cc2ccc(Cl)cc2)CC2CCN(S(=O)(=O)c3cccc4ccccc34)C2)s1 (racemic)",
    "group_label": "1 (yes)"
  },
  {
    "molecule": "NC(=O)CN(Cc1ccc(Cl)cc1)Cc1ccc([N+](=O)[O-])s1",
    "group_label": "0 (no)"
  },
  {
    "molecule": "CC(C)(C)OC(=O)N1CCC(N(Cc2ccc(Cl)cc2)Cc2ccc([N+](=O)[O-])s2)C1 (racemic)",
    "group_label": "0 (no)"
  }
]

Item O=C(Nc1ccccc1)N1CCC(CN(Cc2ccc(Cl)cc2)Cc2ccc([N+](=O)[O-])s2)C1 (racemic) with pEC50 of 6 or above?
1 (yes)

Cited source: ChEMBL document CHEMBL2057134
